Entry source: PubChem BioAssay (EPA / NIEHS)

# EXPERIMENTAL_DETAILS: ATG_PXRE_CIS: Attagene CIS-FACTORIAL HepG2 Assay for human Pregnane X Receptor Element (PXRE) (AID 2282957)
# CONDITION_SUMMARY: HepG2 Attagene CIS-FACTORIAL PXRE reporter, mRNA; actives raise or lower the signal
Calls of active or inactive are those of the source. How the source made its calls: active means hit-call score of the fitted dose curve at least 0.9, where 1 is the maximum; inactive means score below 0.9.
Outcomes you can answer with include only these: active, inactive

Examples with answers:
STRUCTURE_NOTATION: CC1(C)O[C@@H]2C[C@H]3[C@@H]4CCC5=CC(=O)C=C[C@]5(C)[C@@]4(F)[C@@H](O)C[C@]3(C)[C@]2(C(=O)CO)O1
CLASS_ASSIGNMENT: active

STRUCTURE_NOTATION: Cc1ccc(-c2ccccc2)cc1
CLASS_ASSIGNMENT: active

Outcome? CCCCOCC
inactive

###

# EXPERIMENTAL_DETAILS: ATG_PPRE_CIS: Attagene CIS-FACTORIAL HepG2 Assay for human Peroxisome Proliferator-activated Response Element (PPRE) (AID 2282958)
# CONDITION_SUMMARY: HepG2 PPRE cis-element reporter, Attagene transcription factor profiling; actives raise or lower the signal
Calls of active or inactive are those of the source. How the source made its calls: active means hit-call score of the fitted dose curve at least 0.9, where 1 is the maximum; inactive means score below 0.9.
Outcomes you can answer with include only these: active, inactive

MOLECULE: NCC1CCCC(CN)C1 (stereo unspecified)
CLASS_ASSIGNMENT: inactive
//
MOLECULE: CCCC1O[C@@H]2C[C@H]3[C@@H]4CCC5=CC(=O)C=C[C@]5(C)[C@H]4[C@@H](O)C[C@]3(C)[C@]2(C(=O)CO)O1 (stereo partly specified)
CLASS_ASSIGNMENT: inactive
//
MOLECULE: CCc1cc(C(C)(C)C)c(O)c(C(C)(C)C)c1
CLASS_ASSIGNMENT: inactive
//
MOLECULE: CC(C)(C)OC(=O)c1ccc(O)cc1
CLASS_ASSIGNMENT: active

Outcome? CC(C)(N=C=O)c1cccc(C(C)(C)N=C=O)c1
inactive

Outcome? CSCCC=O
inactive

###

# MEASURED_ON: Nuclear respiratory factor 1 (Homo sapiens) (UniProt Q16656)
# Sequence (Q16656 whole entry, looked up): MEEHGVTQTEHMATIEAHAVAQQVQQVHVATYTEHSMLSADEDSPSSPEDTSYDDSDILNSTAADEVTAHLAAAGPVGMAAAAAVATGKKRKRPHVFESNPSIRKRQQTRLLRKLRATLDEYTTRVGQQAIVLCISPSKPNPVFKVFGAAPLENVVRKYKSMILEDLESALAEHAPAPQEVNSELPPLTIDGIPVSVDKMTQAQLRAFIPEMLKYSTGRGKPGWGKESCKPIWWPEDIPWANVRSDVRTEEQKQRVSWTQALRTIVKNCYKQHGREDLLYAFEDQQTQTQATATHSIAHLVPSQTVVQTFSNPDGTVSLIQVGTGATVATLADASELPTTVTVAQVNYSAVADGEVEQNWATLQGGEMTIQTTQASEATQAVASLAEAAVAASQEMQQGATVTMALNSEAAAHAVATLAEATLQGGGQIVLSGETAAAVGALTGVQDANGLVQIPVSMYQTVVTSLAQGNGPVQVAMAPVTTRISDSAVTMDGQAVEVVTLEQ
# EXPERIMENTAL_DETAILS: ATG_NRF1_CIS: Attagene CIS-FACTORIAL HepG2 Assay for human Nuclear Respiratory Factor 1 (NRF1) Orphan Gene (AID 2282987)
# CONDITION_SUMMARY: HepG2 NRF1 cis-element reporter, Attagene multiplex; actives raise or lower the signal
Activity calls are given as the source filed them. How the source made its calls: active means hit-call score of the fitted dose curve at least 0.9, where 1 is the maximum; inactive means score below 0.9.
Outcomes you can answer with include only these: YES (active), NO (inactive)

Examples with answers:
MOLECULE: CN1CCOCC1
CLASS_ASSIGNMENT: NO

MOLECULE: CC(C)c1ccccc1O
CLASS_ASSIGNMENT: NO

Outcome? CCCCCCC(CO)CCCC (stereo not drawn)
NO

Outcome? Cc1ncc[nH]1
NO

Outcome? CS(=O)(=O)c1ccc(C2=C(c3ccccc3)C(=O)OC2)cc1
NO

Outcome? O=C(O)c1ccc(O)cc1
NO

Outcome? CCC(C)c1cc([N+](=O)[O-])cc([N+](=O)[O-])c1OC(=O)OC(C)C (stereo not drawn)
YES

Outcome? COCCOC(=O)c1ccccc1C(=O)OCCOC
NO

Outcome? CC(C)(C)CC(C)(C)c1ccc(OCCOCC[N+](C)(C)Cc2ccccc2)cc1
NO

Outcome? C=C(C#N)C(=O)OCC
NO
